- Experiment Description: Quantitative High-Throughput drug screen in 47 multiple myeloma cell lines against the NCATS MIPE library collection: MOLP8_DSMZ cell viability assay (AID 1918977); further: nearly all actives have a fitted effect of over 45% in size
- Experimental Context: MOLP8 myeloma viability, CellTiter-Glo ATP luminescence, 48 h; series mostly up to 45.8 µM
Results filed as inconclusive are left out. The source made the active and inactive calls. The call rests on the fitted dose curve; in most records, active means well fitted cell-killing curve with a large enough effect; inconclusive means small, poorly fitted or top-dose-only effect, or effect the other way; inactive means no such curve, though single readings can be large or run the other way.
Can you answer with just one of these options? Y for active, N for inactive

Reference set (3 entries):
| Compound | Class Name |
| --- | --- |
| CC(C)OC(=O)CCCC=CC[C@@H]1[C@H](C=C[C@@H](O)COc2cccc(C(F)(F)F)c2)[C@H](O)C[C@@H]1O | Y |
| CCOC(=O)O[C@]1(C(=O)OCCl)CC[C@@H]2[C@H]3CCC4=CC(=O)C=C[C@]4(C)[C@@H]3[C@@H](O)C[C@@]21C | N |
| O=c1cc(N2CCOCC2)oc2c(-c3cccc4c3sc3ccccc34)cccc12 | Y |

INPUT: What outcome does the record of this test show for Cn1cc(C=C2C(=O)Nc3cccnc32)c2ccccc21 ?
OUTPUT: N

INPUT: Name the outcome recorded for COc1cc2c(cc1OC)CN(CCc1ccc(NC(=O)c3cc(OC)c(OC)cc3NC(=O)c3cnc4ccccc4c3)cc1)CC2 in the assay.
OUTPUT: N

INPUT: What classification did O=c1[nH]cnc2c1ncn2[C@H]1CC[C@@H](CO)O1 end up with in this test?
OUTPUT: N

INPUT: // return assay outcome for c1ccc2c(Cc3c[nH]c4ccccc34)c[nH]c2c1
OUTPUT: Y

INPUT: Can you look up the reported call for O=C(NCc1ccccc1)c1csc(Nc2ccncn2)n1 for me?
OUTPUT: Y

INPUT: Answer briefly: the call reported for COC(=O)C1=CO[C@@H](O)[C@@H]2C(CO)=CC[C@@H]12 in this assay.
OUTPUT: Y

INPUT: Record request — test call for CC(C)(C)Cn1c(N)nc2ccc(-c3[nH]c(C(C)(C)C)nc3-c3ccc(F)cc3)nc21
OUTPUT: Y

INPUT: Recorded test outcome, item O=C1C[C@@H](c2ccc(O)cc2)Oc2cc(O)cc(O)c21
OUTPUT: N

INPUT: # outcome recorded in this test, key = Cc1cc(OCCCc2c(C(=O)O)n(Cc3cccnc3)c3c(-c4c(COc5ccc(N6CCN([S+](C)(=O)[O-])CC6)cc5)nn(C)c4C)cccc23)cc(C)c1Cl
OUTPUT: Y

INPUT: Any idea what this test logged for COc1ccc2cc(-c3nc(-c4ccc(S(C)=O)cc4)[nH]c3-c3ccncc3)ccc2c1 (centres undefined) ?
OUTPUT: N

INPUT: How did this test come out for CN1C[C@H]2c3ccccc3Oc3ccc(Cl)cc3[C@@H]2C1 ?
OUTPUT: N

INPUT: Hi, do you know how O=C(O)c1ccccc1C(=O)Nc1ccc(-c2ccccc2)cc1 came out in this test?
OUTPUT: N

====

- Experiment Description: qHTS profiling of the MIPE4 collection as inhibitors of Plasmodium falciparum (HB3) proliferation (AID 743347)
- Experimental Context: P. falciparum HB3 in erythrocytes, SYBR Green DNA, 72 h; at 28.5 µM (top of the series) unless noted
Each record is given condition met if its reported growth, % of control is strictly below 30%. Records at or above 30% are given condition not met.

INPUT: I wonder whether COc1ccc(Cc2nccc3cc(OC)c(OC)cc23)cc1OC has growth, % of control below 30%. Can you tell?
OUTPUT: condition met

INPUT: Is it true that growth, % of control reported for O=C1Nc2ccc(Cl)cc2C(C#CC2CC2)(C(F)(F)F)O1 (centres undefined) is less than 30%?
OUTPUT: condition not met

INPUT: Please state whether growth, % of control is below 30% for O=c1ccn([C@@H]2O[C@H](CO)[C@H](O)[C@H]2O)c(=O)[nH]1
OUTPUT: condition not met

INPUT: Decide: growth, % of control of CC(C)(Cc1ccc2ccccc2c1)NC[C@@H](O)COc1cccc(Cl)c1C#N strictly below 30%?
OUTPUT: condition not met

INPUT: Strictly below 30% in growth, % of control? COc1ccc(-c2oc3c(CC=C(C)C)c(OC4O[C@H](CO)[C@@H](O)[C@H](O)[C@@H]4O)cc(O)c3c(=O)c2OC2O[C@@H](C)[C@H](O)[C@@H](O)[C@@H]2O)cc1 (some centres undefined)
OUTPUT: condition met

INPUT: I wonder whether Cn1c(N2CCCCS2(=O)=O)nc(C(=O)NCc2ccc(F)cc2)c(O)c1=O has growth, % of control below 30%. Can you tell?
OUTPUT: condition not met

INPUT: For CCOC(=O)C1=C(N)Oc2ccc(Br)cc2C1C(C#N)C(=O)OCC (centres undefined) , is the recorded growth, % of control below the cut-off of 30%?
OUTPUT: condition not met

INPUT: Hello, I'm reviewing records and need to know if growth, % of control of COc1ccc(C2CC(c3ccccc3)=NN2c2ccc(S(N)(=O)=O)cc2)cc1 (centres undefined) is below 30%. Could you check?
OUTPUT: condition not met

INPUT: Please check: growth, % of control for CC(C)(C)NC(=O)Nc1cccc(Nc2ncc(F)c(NC(C)(C)CO)n2)c1 , strictly under 30% or not?
OUTPUT: condition met

INPUT: Quick check: does CO[C@H]1C=CC=C(C)C(=O)NC2=CC(=O)C(NCCN(C)C)=C(C[C@@H](C)C[C@H](OC)[C@@H](O)[C@@H](C)C=C(C)[C@@H]1OC(N)=O)C2=O have growth, % of control under 30%?
OUTPUT: condition met

INPUT: Answer whether the molecule CCCCCCCCCCCC1=C(O)C(=O)C=C(O)C1=O has growth, % of control strictly less than 30%
OUTPUT: condition met

INPUT: Please check: growth, % of control for COc1cc(NC(=O)c2ccc(-c3ccc(Cl)cc3)o2)cc(OC)c1 , strictly under 30% or not?
OUTPUT: condition not met

INPUT: Find out if reported growth, % of control for CC(C)(C)C(=O)Oc1ccc2c(c1)nc(NC(=O)c1cccc([N+](=O)[O-])c1)n2CCCO is less than 30%
OUTPUT: condition met
